target-or-system: Leu3a binding to CD4
experimental-details: Leu3a competitive immunoassay (inhibition of biotinylated Leu3a binding to immobilized CD4 membrane fraction)
Set-up: species or system human
run-conditions: CD4 fragment peptides; peptide amount per well inhibiting Leu3a binding by 50%; membrane fraction of MOLT4 or CCRF-CEM cells as CD4 source; unit of the source corrected
Where no end group is shown, it is not given here.
parameter-measured: IC50 /µg/well (µg/well)

[I] KNSNQIKILGNQGSFLTKG [CD4 (29-47)]
[II] SKLNDRADSRRSLWD [CD4 (49-63)]
# query: argmin of IC50 /µg/well over I and II Field: selected label. Fill in the label of the entry you choose.
II
(II: 10 µg/well, I: 500 µg/well)

----------
target-or-system: Leu3a binding to CD4
experimental-details: Leu3a competitive immunoassay (inhibition of biotinylated Leu3a binding to immobilized CD4 membrane fraction)
Parameters: species or system human
run-conditions: D-amino acid-substituted CD4 (49-63); peptide amount per well inhibiting Leu3a binding by 50%
Where a SMILES comes first, the peptide text is derived from it. [ ]: non-standard residue; d: D form.
Overview of recorded IC50 μg/well for various compounds
Kindly answer with a numeric value in μg/well, unit omitted.

Known results for compounds:
compound	scale-unit	IC50 μg/well
CC(C)C[C@H](NC(=O)[C@H](CO)NC(=O)[C@H](CCCNC(=N)N)NC(=O)[C@H](CCCNC(=N)N)NC(=O)[C@H](CO)NC(=O)[C@H](CC(=O)O)NC(=O)[C@@H](C)NC(=O)[C@H](CCCNC(=N)N)NC(=O)[C@H](CC(=O)O)NC(=O)[C@@H](CC(N)=O)NC(=O)[C@H](CC(C)C)NC(=O)[C@H](CCCCN)NC(=O)[C@@H](N)CO)C(=O)N[C@@H](Cc1c[nH]c2ccccc12)C(=O)N[C@@H](CC(=O)O)C(=O)O [[D-Asn^52,D-Ala^55]-CD4(49-63)] (H-SKL[dN]DR[dA]DSRRSLWD-OH)	μg/well	60
CC(C)C[C@H](NC(=O)[C@H](CO)NC(=O)[C@H](CCCNC(=N)N)NC(=O)[C@H](CCCNC(=N)N)NC(=O)[C@H](CO)NC(=O)[C@H](CC(=O)O)NC(=O)[C@@H](C)NC(=O)[C@H](CCCNC(=N)N)NC(=O)[C@H](CC(=O)O)NC(=O)[C@H](CC(N)=O)NC(=O)[C@H](CC(C)C)NC(=O)[C@@H](CCCCN)NC(=O)[C@@H](N)CO)C(=O)N[C@@H](Cc1c[nH]c2ccccc12)C(=O)N[C@@H](CC(=O)O)C(=O)O [[D-Lys^50,D-Ala^55]-CD4(49-63)] (H-S[dK]LNDR[dA]DSRRSLWD-OH)	μg/well	36
CC(C)C[C@H](NC(=O)[C@@H](CCCCN)NC(=O)[C@@H](N)CO)C(=O)N[C@@H](CC(N)=O)C(=O)N[C@@H](CC(=O)O)C(=O)N[C@@H](CCCNC(=N)N)C(=O)N[C@H](C)C(=O)N[C@@H](CC(=O)O)C(=O)N[C@@H](CO)C(=O)N[C@@H](CCCNC(=N)N)C(=O)N[C@@H](CCCNC(=N)N)C(=O)N[C@@H](CO)C(=O)N[C@H](CC(C)C)C(=O)N[C@@H](Cc1c[nH]c2ccccc12)C(=O)N[C@@H](CC(=O)O)C(=O)O [[D-Lys^50,D-Ala^55,D-Leu^61]-CD4(49-63)] (H-S[dK]LNDR[dA]DSRRS[dL]WD-OH)	μg/well	22
CC(C)C[C@H](NC(=O)[C@H](CO)NC(=O)[C@H](CCCNC(=N)N)NC(=O)[C@H](CCCNC(=N)N)NC(=O)[C@@H](CO)NC(=O)[C@H](CC(=O)O)NC(=O)[C@@H](C)NC(=O)[C@H](CCCNC(=N)N)NC(=O)[C@H](CC(=O)O)NC(=O)[C@H](CC(N)=O)NC(=O)[C@H](CC(C)C)NC(=O)[C@H](CCCCN)NC(=O)[C@@H](N)CO)C(=O)N[C@@H](Cc1c[nH]c2ccccc12)C(=O)N[C@@H](CC(=O)O)C(=O)O [[D-Ala^55,D-Ser^57]-CD4(49-63)] (H-SKLNDR[dA]D[dS]RRSLWD-OH)	μg/well	10
CC(C)C[C@H](NC(=O)[C@H](CO)NC(=O)[C@H](CCCNC(=N)N)NC(=O)[C@H](CCCNC(=N)N)NC(=O)[C@H](CO)NC(=O)[C@H](CC(=O)O)NC(=O)[C@@H](C)NC(=O)[C@H](CCCNC(=N)N)NC(=O)[C@H](CC(=O)O)NC(=O)[C@H](CC(N)=O)NC(=O)[C@H](CC(C)C)NC(=O)[C@H](CCCCN)NC(=O)[C@@H](N)CO)C(=O)N[C@@H](Cc1c[nH]c2ccccc12)C(=O)N[C@@H](CC(=O)O)C(=O)O [[D-Ala^55]-CD4(49-63)] (H-SKLNDR[dA]DSRRSLWD-OH)	μg/well	32
CC(C)C[C@H](NC(=O)[C@H](CCCCN)NC(=O)[C@@H](N)CO)C(=O)N[C@@H](CC(N)=O)C(=O)N[C@@H](CC(=O)O)C(=O)N[C@@H](CCCNC(=N)N)C(=O)N[C@H](C)C(=O)N[C@@H](CC(=O)O)C(=O)N[C@@H](CO)C(=O)N[C@@H](CCCNC(=N)N)C(=O)N[C@H](CCCNC(=N)N)C(=O)N[C@@H](CO)C(=O)N[C@@H](CC(C)C)C(=O)N[C@@H](Cc1c[nH]c2ccccc12)C(=O)N[C@@H](CC(=O)O)C(=O)O [[D-Ala^55,D-Arg^59]-CD4(49-63)] (H-SKLNDR[dA]DSR[dR]SLWD-OH)	μg/well	23
CC(C)C[C@H](NC(=O)[C@H](CO)NC(=O)[C@@H](CCCNC(=N)N)NC(=O)[C@H](CCCNC(=N)N)NC(=O)[C@H](CO)NC(=O)[C@H](CC(=O)O)NC(=O)[C@@H](C)NC(=O)[C@H](CCCNC(=N)N)NC(=O)[C@H](CC(=O)O)NC(=O)[C@H](CC(N)=O)NC(=O)[C@H](CC(C)C)NC(=O)[C@@H](CCCCN)NC(=O)[C@@H](N)CO)C(=O)N[C@@H](Cc1c[nH]c2ccccc12)C(=O)N[C@@H](CC(=O)O)C(=O)O [[D-Lys^50,D-Ala^55,D-Arg^59]-CD4(49-63)] (H-S[dK]LNDR[dA]DSR[dR]SLWD-OH)	μg/well	25
CC(C)C[C@H](NC(=O)[C@H](CO)NC(=O)[C@H](CCCNC(=N)N)NC(=O)[C@H](CCCNC(=N)N)NC(=O)[C@H](CO)NC(=O)[C@@H](CC(=O)O)NC(=O)[C@H](C)NC(=O)[C@H](CCCNC(=N)N)NC(=O)[C@H](CC(=O)O)NC(=O)[C@H](CC(N)=O)NC(=O)[C@H](CC(C)C)NC(=O)[C@H](CCCCN)NC(=O)[C@@H](N)CO)C(=O)N[C@@H](Cc1c[nH]c2ccccc12)C(=O)N[C@@H](CC(=O)O)C(=O)O [[D-Asp^56]-CD4(49-63)] (H-SKLNDRA[dD]SRRSLWD-OH)	μg/well	56

Now for the compound whose IC50 μg/well we want.
Measured IC50 μg/well of CC(C)C[C@H](NC(=O)[C@H](CO)NC(=O)[C@H](CCCNC(=N)N)NC(=O)[C@@H](CCCNC(=N)N)NC(=O)[C@H](CO)NC(=O)[C@H](CC(=O)O)NC(=O)[C@@H](C)NC(=O)[C@H](CCCNC(=N)N)NC(=O)[C@H](CC(=O)O)NC(=O)[C@H](CC(N)=O)NC(=O)[C@H](CC(C)C)NC(=O)[C@H](CCCCN)NC(=O)[C@@H](N)CO)C(=O)N[C@@H](Cc1c[nH]c2ccccc12)C(=O)N[C@@H](CC(=O)O)C(=O)O [[D-Ala^55,D-Arg^58]-CD4(49-63)] (H-SKLNDR[dA]DS[dR]RSLWD-OH) : 36
